Hey, just so you know, these numbers are from patent US9938262B2.

Biological target: FSHR (Homo sapiens, UniProt P23945)
Construct: expressed in transfected cells; host or cells: CHO (Cho-FSHR-LUC-1-1-43)
Sequence (P23945 18-695): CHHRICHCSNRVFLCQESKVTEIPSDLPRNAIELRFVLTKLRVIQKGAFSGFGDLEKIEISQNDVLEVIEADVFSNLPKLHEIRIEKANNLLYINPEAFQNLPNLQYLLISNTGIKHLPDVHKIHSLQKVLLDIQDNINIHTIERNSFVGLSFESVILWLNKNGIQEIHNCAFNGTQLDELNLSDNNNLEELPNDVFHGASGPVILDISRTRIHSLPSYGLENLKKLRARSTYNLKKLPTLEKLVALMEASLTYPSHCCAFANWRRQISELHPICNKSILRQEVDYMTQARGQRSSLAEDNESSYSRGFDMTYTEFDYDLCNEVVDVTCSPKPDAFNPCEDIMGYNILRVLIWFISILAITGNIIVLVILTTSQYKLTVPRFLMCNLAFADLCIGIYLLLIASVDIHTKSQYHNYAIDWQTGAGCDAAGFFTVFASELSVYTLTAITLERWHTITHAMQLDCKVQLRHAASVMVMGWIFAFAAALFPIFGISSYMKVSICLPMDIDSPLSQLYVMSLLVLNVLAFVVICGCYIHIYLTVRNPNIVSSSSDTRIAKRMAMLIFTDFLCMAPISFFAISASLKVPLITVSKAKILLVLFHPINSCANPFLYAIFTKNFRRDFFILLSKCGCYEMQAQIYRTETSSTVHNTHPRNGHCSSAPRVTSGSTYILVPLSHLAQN
Sequence (P01215 25-116 partner): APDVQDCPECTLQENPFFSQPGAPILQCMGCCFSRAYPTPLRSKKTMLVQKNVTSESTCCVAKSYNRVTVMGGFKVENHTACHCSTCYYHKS
Sequence (P01225 19-129 partner): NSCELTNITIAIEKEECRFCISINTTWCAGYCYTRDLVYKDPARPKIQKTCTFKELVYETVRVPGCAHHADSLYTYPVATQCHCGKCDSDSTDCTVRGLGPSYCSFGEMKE
Test: EC50 of cyclic AMP production in CHO FSHR cells + EC20 FSH (Assay A)
Assay type: cell-based
Conditions: CHO FSHR cells + EC20 FSH; Table 2; read-out: Assay A EC50 of cyclic AMP production
pEC50: −log10 of the molar value.
metric: pEC50

Look over these answered cases.
> print(dat)
                                   compound                         testedsystem   measurement
1  Cc1ccccc1N1CCN(c2ccc(C(=O)NCc3ccc(F)c(CN(C)C)c3)cc2NC(=O)c2coc(C3CC3)n2)CC1  FSHR (Homo sapiens, UniProt P23945)  6.00 to 7.00
2  Cc1ccccc1N1CCN(c2ccc(C(N)=O)cc2NC(=O)c2ccco2)CC1  FSHR (Homo sapiens, UniProt P23945)  5.00 to 6.00
3  CCN(CC)Cc1cccc(CNC(=O)c2ccc(N3CCN(c4ccccc4C)CC3)c(NC(=O)c3coc(C4CC4)n3)c2)c1  FSHR (Homo sapiens, UniProt P23945)  6.00 to 7.00
4  Cc1ccccc1N1CCN(c2ccc(C(=O)NCCc3ccccc3C#N)cc2NC(=O)c2coc(C3CC3)n2)CC1  FSHR (Homo sapiens, UniProt P23945)  6.00 to 7.00
5  Cc1ccccc1N1CCN(c2ccc(C(=O)N3CCC4(COC4)C3)cc2NC(=O)c2coc(C3CC3)n2)CC1  FSHR (Homo sapiens, UniProt P23945)  5.00 to 6.00
6  Cc1ccccc1N1CCN(c2ccc(C(=O)NCCCNC(=O)C3CCC3)cc2NC(=O)c2coc(C3CC3)n2)CC1  FSHR (Homo sapiens, UniProt P23945)  6.00 to 7.00

[in] For the compound Cc1ccccc1N1CCN(c2ccc(C(=O)NCC(=O)NC3CCCC3)cc2NC(=O)c2coc(C3CC3)n2)CC1 , what pEC50 is on record?
[out] 5.00 to 6.00

[in] For the compound Cc1nc(CCCNC(=O)c2ccc(N3CCN(c4ccccc4C)CC3)c(NC(=O)c3coc(C4CC4)n3)c2)no1 , what pEC50 is on record?
[out] 6.00 to 7.00

[in] For the compound Cc1ccccc1N1CCN(c2ccc(C(=O)NCCNC3CS(=O)(=O)C[C@H]3O)cc2NC(=O)c2ccco2)CC1 (some centres unmarked) , what pEC50 is on record?
[out] 6.00 to 7.00

[in] For the compound Cc1ccccc1N1CCN(c2ccc(C(=O)NCCCc3cccnc3)cc2NC(=O)c2ccco2)CC1 , what pEC50 is on record?
[out] 6.00 to 7.00

###

Target: FSHR (Homo sapiens)
Construct: expressed in transfected cells; host or cells: CHO (Cho-FSHR-LUC-1-1-43)
Assay: EC50 of cyclic AMP production in CHO FSHR cells + EC20 FSH (Assay A)
Format: cell-based
Conditions: CHO FSHR cells + EC20 FSH; Table 1; read-out: Assay A EC50 of cyclic AMP production
metric: EC50

Look over these answered cases.
> print(dat)
                             smilesnotation       measurement
1  Cc1ccccc1N1CCN(c2ccc(C(=O)NCCCN3CCCC3=O)cc2NC(=O)c2csnn2)CC1  1000 to 10000 nM
2  Cc1ccccc1N1CCN(c2ccc(C(=O)NCCCN3CCCC3=O)cc2NC(=O)c2cocn2)CC1  1000 to 10000 nM
3  Cc1csc(C(=O)Nc2cc(C(=O)NCCCN3CCCC3=O)ccc2N2CCN(c3ccccc3C)CC2)n1    100 to 1000 nM
4  Cc1ccccc1N1CCN(c2ccc(C(=O)N[C@H]3O[C@@H](CO)[C@H](O)[C@@H]3O)cc2NC(=O)c2ccco2)CC1    100 to 1000 nM
5  Cc1ccccc1N1CCN(c2ccc(C(=O)NCCCc3ccccc3)cc2NC(=O)c2ccco2)CC1    100 to 1000 nM

[in] What value of EC50 on FSHR (Homo sapiens) does Cc1ccccc1N1CCN(c2ccc(C(=O)N[C@H](CO)c3ccccc3)cc2NC(=O)c2ccco2)CC1 have?
[out] 100 to 1000 nM

[in] What value of EC50 on FSHR (Homo sapiens) does Cc1ccccc1N1CCN(c2ccc(C(=O)NCCCN3CCCC3=O)cc2NC(=O)c2sc(Br)nc2C)CC1 have?
[out] > 10000 nM

###

Entries and their EC50 values follow.
Target: FSHR (Homo sapiens, UniProt P23945)
Construct: expressed in transfected cells; host or cells: CHO (Cho-FSHR-LUC-1-1-43)
Test: EC50 of cyclic AMP production in CHO FSHR cells + EC20 FSH (Assay A)
Assay type: cell-based
Details: CHO FSHR cells + EC20 FSH; Table 1; read-out: Assay A EC50 of cyclic AMP production

Look over these answered cases.
> print(dat)
                             smilesnotation       measurement
1  Cc1ccccc1N1CCN(c2ccc(C(=O)NCCCN3CCCC3=O)cc2NC(=O)c2ccno2)CC1  1000 to 10000 nM
2  Cc1ccccc1N1CCN(c2ccc(C(=O)NCCCN3CCCC3=O)cc2NC(=O)c2ncsc2C)CC1    100 to 1000 nM
3  Cc1ccc(C(=O)Nc2cc(C(=O)NCCCNC(=O)OC(C)(C)C)ccc2N2CCN(c3ccccc3C)CC2)o1  1000 to 10000 nM
4  COc1ccc(C(=O)Nc2cc(C(=O)NCCCN3CCCC3=O)ccc2N2CCN(c3ccccc3C)CC2)nc1    100 to 1000 nM
5  Cc1ccccc1N1CCN(c2ccc(C(=O)NCCCn3ccnc3C)cc2NC(=O)c2ccco2)CC1    100 to 1000 nM

[in] For the compound COc1ccc(CNC(=O)c2ccc(N3CCN(c4ccccc4C)CC3)c(NC(=O)c3ccc(C)o3)c2)cc1OC , what EC50 is on record?
[out] 1000 to 10000 nM

[in] For the compound Cc1ccc(C(=O)Nc2cc(C(=O)NCCc3c[nH]cn3)ccc2N2CCN(c3ccccc3C)CC2)o1 , what EC50 is on record?
[out] 1000 to 10000 nM

###

Biological target: FSHR (Homo sapiens, UniProt P23945)
Construct: expressed in transfected cells; host or cells: CHO (Cho-FSHR-LUC-1-1-43)
Test: EC50 of cyclic AMP production in CHO FSHR cells + EC20 FSH (Assay A)
Type: cell-based
Conditions: CHO FSHR cells + EC20 FSH; Table 2; read-out: Assay A EC50 of cyclic AMP production
pEC50: −log10 of the molar value.
metric: pEC50

> print(dat)
                             smilesnotation   measurement
1  Cc1cnccc1N1CCN(c2ccc(C(=O)NCCc3cnc[nH]3)cc2NC(=O)c2coc(C3CC3)n2)CC1  5.00 to 6.00

[in] For the compound Cc1ccccc1N1CCN(c2ccc(C(=O)NCCCn3cncn3)cc2NC(=O)c2coc(C3CC3)n2)CC1 , what pEC50 is on record?
[out] 6.00 to 7.00

[in] For the compound Cc1ccccc1N1CCN(c2ccc(C(=O)NCCCC(=O)CN(c3ccccc3)c3ccccc3)cc2NC(=O)c2coc(C3CC3)n2)CC1 , what pEC50 is on record?
[out] 5.00 to 6.00

[in] For the compound Cc1ccccc1N1CCN(c2ccc(C(=O)N[C@@H]3CCC[C@@H](O)[C@H]3O)cc2NC(=O)c2coc(C3CC3)n2)CC1 , what pEC50 is on record?
[out] > 7.00

###

Target: FSHR (Homo sapiens)
Construct: expressed in transfected cells; host or cells: CHO (Cho-FSHR-LUC-1-1-43)
Test: EC50 of cyclic AMP production in CHO FSHR cells + EC20 FSH (Assay A)
Format: cell-based
Conditions: CHO FSHR cells + EC20 FSH; Table 1; read-out: Assay A EC50 of cyclic AMP production
Entries and their EC50 values follow.

> print(dat)
                                   molecule  measurement
1  Cc1ccccc1N1CCN(c2ccc(C(=O)NCCS(=O)(=O)N3CCCC3)cc2NC(=O)c2ccco2)CC1  0.1 to 1 µM

[in] For the molecule Cc1ccc(C(=O)Nc2cc(C(=O)NCCCN3CCCC3=O)ccc2N2CCN(c3ccccc3C)CC2)s1 , what EC50 is on record?
[out] 0.1 to 1 µM

[in] For the molecule C#Cc1ccc(C(=O)Nc2cc(C(=O)NCCCN3CCCC3=O)ccc2N2CCN(c3ccccc3C)CC2)o1 , what EC50 is on record?
[out] 0.1 to 1 µM

[in] For the molecule Cc1ccccc1N1CCN(c2ccc(C(=O)NCCCN3CCCC3=O)cc2NC(=O)C2CCCO2)CC1 (centres unmarked) , what EC50 is on record?
[out] 1 to 10 µM

[in] For the molecule Cc1ccccc1N1CCN(c2ccc(C(=O)NCCCN3CCCC3=O)cc2NC(=O)c2ccccc2C(F)(F)F)CC1 , what EC50 is on record?
[out] 1 to 10 µM

[in] For the molecule Cc1ccccc1N1CCN(c2ccc(C(=O)NCCCN3CCCC3=O)cc2NC(=O)c2nc(Br)cs2)CC1 , what EC50 is on record?
[out] 1 to 10 µM

[in] For the molecule Cc1ccc(C(=O)Nc2cc(C(=O)NCCCN3CCCC3=O)ccc2N2CCN(c3ccccc3C)CC2)cc1 , what EC50 is on record?
[out] 0.1 to 1 µM
